Entry source: patent US4937390A

- TEST_SYSTEM: myo-inositol transporter (Rattus norvegicus)
- Construct: PC12 cells were gently detached and maintained in a suspension culture; endogenous in cells
- Sequence (Q80WA5 1-718): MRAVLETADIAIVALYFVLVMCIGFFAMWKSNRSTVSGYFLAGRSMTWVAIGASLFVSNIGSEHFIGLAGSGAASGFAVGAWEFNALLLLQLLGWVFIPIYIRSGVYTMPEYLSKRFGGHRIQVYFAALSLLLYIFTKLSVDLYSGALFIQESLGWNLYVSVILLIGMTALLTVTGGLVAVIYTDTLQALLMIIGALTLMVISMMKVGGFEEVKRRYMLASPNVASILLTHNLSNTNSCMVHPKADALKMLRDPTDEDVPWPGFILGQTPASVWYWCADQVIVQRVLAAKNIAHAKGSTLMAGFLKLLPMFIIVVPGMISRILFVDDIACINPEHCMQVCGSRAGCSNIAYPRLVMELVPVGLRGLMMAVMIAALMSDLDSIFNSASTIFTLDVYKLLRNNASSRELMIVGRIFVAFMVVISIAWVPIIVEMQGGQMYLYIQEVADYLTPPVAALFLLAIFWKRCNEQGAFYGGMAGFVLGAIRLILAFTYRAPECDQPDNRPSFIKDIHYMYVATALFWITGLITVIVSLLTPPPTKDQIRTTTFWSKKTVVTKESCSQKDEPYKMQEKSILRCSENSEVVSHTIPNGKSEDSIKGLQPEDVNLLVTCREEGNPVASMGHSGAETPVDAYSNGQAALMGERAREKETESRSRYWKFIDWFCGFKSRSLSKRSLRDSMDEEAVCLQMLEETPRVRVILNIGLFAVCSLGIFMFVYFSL
- ASSAY_TEXT: [3H]myo-inositol uptake by the myo-inositol transporter in PC12 cells
- DETAILS: uptake studies in the presence of a fixed concentration (1 mM) of analog, PC12 cells; read-out: Affinity Constant K (Ki of the analog)
- Procedure: To determine if the effect of the fluoro-myo-inositol analogs might be mediated by the blockade of the myo-inositol transporter, which is responsible for uptake and accumulation of myo-inositol into the cell, the ability of these two compounds to block [^3 H]myo-inositol transport was studied directly. The uptake of [^3 H]myo-inositol by the myo-inositol transporter was determined as follows: […] The […] and Vmax of myoinositol were determined from LineweaverBurke plots […]
pKi: −log10 of the molar value.
PARAMETER: pKi

[I] O[C@@H]1[C@@H](O)[C@@H](O)[C@@H](F)[C@H](O)[C@H]1O [1-deoxy-1-fluoro-myo-inositol]
[II] O[C@@H]1[C@@H](O)[C@H](O)[C@@H](F)[C@@H](O)[C@H]1O [3-deoxy-3-fluoro-myo-inositol]
// pick min by pKi: I , II Pick one; state its label.
I
(I: 2.84, II: 3.60)
